// provenance: patent US12146004B2

Test system: Acinetobacter baumannii
Format: cell-based
Bridge positions count the residues as written; N and C are the ends. Square brackets hold non-standard residues; d marks the D form. Peptide text beside a SMILES is read from it. * marks the point of attachment. ξ: configuration not given here. dPhe(4-Br) = N[C@H](Cc1ccc(Br)cc1)C(=O)O; Gly(octyl) = CCCCCCCC[C@H](N)C(=O)O; X9 = Cc1ccc(CO[C@@H](CCN)C(=O)*)cc1; Octanoyl(6-Me) = CCC(C)CCCCC(=O)*; dCha = N[C@H](CC1CCCCC1)C(=O)O; Thr(3ξ) = CC(O)[C@H](N)C(=O)O; X21 = NCC(CC1CCCCC1)C(=O)*; Octanoyl = CCCCCCCC(=O)*; Dab = NCC[C@H](N)C(=O)O; Dap = NC[C@H](N)C(=O)O
property name: MIC A. baumanii ATCC BAA-747 (µg/mL)
// note: answer is a bare numeric in µg/mL

Some solved cases for reference:
compound	measured
CCC(C)CCCCC(=O)N[C@@H](CCN)C(=O)N[C@H](C(=O)N[C@@H](CCN)C(=O)N[C@H]1CCNC(=O)[C@H]([C@@H](C)O)NC(=O)[C@H](CCN)NC(=O)[C@H](CCN)NC(=O)[C@H](CC(C)C)NC(=O)[C@@H](Cc2ccc(Br)cc2)NC(=O)[C@H](CCN)NC1=O)C(C)O (stereo partly drawn) [Example 2, Polymyxin B[D-(4-bromoPhe)]-6]] ({Octanoyl(6-Me)}-[Dab][Thr(3ξ)][Dab][Dab][Dab][dPhe(4-Br)]L[Dab][Dab]T; lactam 4-C)	2
CC(C)C[C@@H]1NC(=O)[C@@H](CC2CCCCC2)NC(=O)[C@H](CCN)NC(=O)[C@@H](NC(=O)[C@H](CN)NC(=O)[C@@H](NC(=O)C(CN)CC2CCCCC2)C(C)O)CCNC(=O)[C@H]([C@@H](C)O)NC(=O)[C@H](CCN)NC(=O)[C@H](CCN)NC1=O (some centres unmarked) [Example 31] (X21-[Thr(3ξ)][Dap][Dab][Dab][dCha]L[Dab][Dab]T; lactam 3-C)	0.25

Item CCCCCCCC[C@@H]1NC(=O)[C@@H](Cc2ccccc2)NC(=O)[C@H](CCN)NC(=O)[C@@H](NC(=O)[C@H](CCN)NC(=O)[C@@H](NC(=O)[C@H](CCN)NC(=O)CCCCCCC)[C@@H](C)O)CCNC(=O)[C@H]([C@@H](C)O)NC(=O)[C@H](CCN)NC(=O)[C@H](CCN)NC1=O [Example C7, reference compound] (Octanoyl-[Dab]T[Dab][Dab][Dab][dF][Gly(octyl)][Dab][Dab]T; lactam 4-C) with Acinetobacter baumannii - MIC A. baumanii ATCC BAA-747? 1

Next: CC(C)C[C@@H]1NC(=O)[C@@H](CC2CCCCC2)NC(=O)[C@H](CCN)NC(=O)[C@@H](NC(=O)[C@H](CCN)NC(=O)[C@@H](NC(=O)C(CCN)c2ccccc2)[C@@H](C)O)CCNC(=O)[C@H]([C@@H](C)O)NC(=O)[C@H](CCN)NC(=O)[C@H](CCN)NC1=O (single isomer, unassigned; isomer 2) [Example 64] 0.125

Also check Cc1ccc(CO[C@@H](CCN)C(=O)N[C@H](C(=O)N[C@@H](CN)C(=O)N[C@H]2CCNC(=O)[C@H]([C@@H](C)O)NC(=O)[C@H](CCN)NC(=O)[C@H](CCN)NC(=O)[C@H](CC(C)C)NC(=O)[C@@H](CC3CCCCC3)NC(=O)[C@H](CCN)NC2=O)[C@@H](C)O)cc1 [Example 71] (X9-T[Dap][Dab][Dab][dCha]L[Dab][Dab]T; lactam 3-C) 0.125

---

Tested on: Pseudomonas aeruginosa
Type: cell-based
Experimental: To evaluate the potency and spectrum of the compounds, susceptibility testing was performed against up to nine strains of each of the Gram negative pathogens, Escherichia coli, Pseudomonas aeruginosa, Klebsiella pneumoniae and Acinetobacter baumannii. The values in Table 2 are MIC (μg/mL) against strains of E. coli, K. pneumoniae, P. aeruginosa and A. baumanii, including strains which show elevated MICs to Polymyxin. The values in Table 2A are MIC (μg/mL). […]
Bridge positions count the residues as written; N and C are the ends. Square brackets hold non-standard residues; d marks the D form. Peptide text beside a SMILES is read from it. * marks the point of attachment. ξ: configuration not given here. dPhe(4-Br) = N[C@H](Cc1ccc(Br)cc1)C(=O)O; X10 = NC[C@H](OCc1ccc(Cl)cc1)C(=O)*; Octanoyl(6-Me) = CCC(C)CCCCC(=O)*; dCha = N[C@H](CC1CCCCC1)C(=O)O; Thr(3ξ) = CC(O)[C@H](N)C(=O)O; X8 = NCC(C(=O)*)C1CCCCC1; Dab = NCC[C@H](N)C(=O)O; Dap = NC[C@H](N)C(=O)O; X18 = CCCCC(CCN)C(=O)*
property name: MIC P. aeruginosa 068
In your response, put the unit directly after the numeric value.

Known MIC P. aeruginosa 068 results, listed for orientation:
compound	MIC P. aeruginosa 068
CC(C)C[C@@H]1NC(=O)[C@@H](CC2CCCCC2)NC(=O)[C@H](CCN)NC(=O)[C@@H](NC(=O)[C@H](CN)NC(=O)[C@@H](NC(=O)C(CCN)c2ccccc2)C(C)O)CCNC(=O)[C@H]([C@@H](C)O)NC(=O)[C@H](CCN)NC(=O)[C@H](CCN)NC1=O (single isomer, unassigned; isomer 2) [Example 38]	4 µg/mL
CC(C)C[C@@H]1NC(=O)[C@@H](CC2CCCCC2)NC(=O)[C@H](CCN)NC(=O)[C@@H](NC(=O)[C@H](CN)NC(=O)[C@@H](NC(=O)CC(N)C2CCCCC2)C(C)O)CCNC(=O)[C@H]([C@@H](C)O)NC(=O)[C@H](CCN)NC(=O)[C@H](CCN)NC1=O (single isomer, unassigned; isomer 1) [Example 32]	4 µg/mL
CC(C)C[C@@H]1NC(=O)[C@@H](CC2CCCCC2)NC(=O)[C@H](CCN)NC(=O)[C@@H](NC(=O)[C@H](CN)NC(=O)[C@@H](NC(=O)[C@H](CN)OCc2ccc(Cl)cc2)[C@@H](C)O)CCNC(=O)[C@H]([C@@H](C)O)NC(=O)[C@H](CCN)NC(=O)[C@H](CCN)NC1=O [Example 81] (X10-T[Dap][Dab][Dab][dCha]L[Dab][Dab]T; lactam 3-C)	2 µg/mL
CCC(C)CCCCC(=O)N[C@@H](CCN)C(=O)N[C@H](C(=O)N[C@@H](CCN)C(=O)N[C@H]1CCNC(=O)[C@H]([C@@H](C)O)NC(=O)[C@H](CCN)NC(=O)[C@H](CCN)NC(=O)[C@H](CC(C)C)NC(=O)[C@@H](Cc2ccc(Br)cc2)NC(=O)[C@H](CCN)NC1=O)C(C)O (stereo partly drawn) [Example 2, Polymyxin B[D-(4-bromoPhe)]-6]] ({Octanoyl(6-Me)}-[Dab][Thr(3ξ)][Dab][Dab][Dab][dPhe(4-Br)]L[Dab][Dab]T; lactam 4-C)	2 µg/mL
CC(C)C[C@@H]1NC(=O)[C@@H](CC2CCCCC2)NC(=O)[C@H](CCN)NC(=O)[C@@H](NC(=O)[C@H](CCN)NC(=O)[C@@H](NC(=O)C(CCN)c2ccc(F)cc2)C(C)O)CCNC(=O)[C@H]([C@@H](C)O)NC(=O)[C@H](CCN)NC(=O)[C@H](CCN)NC1=O (single isomer, unassigned; isomer 2) [Example 54]	4 µg/mL
CC(C)C[C@@H]1NC(=O)[C@@H](CC2CCCCC2)NC(=O)[C@H](CCN)NC(=O)[C@@H](NC(=O)[C@H](CN)NC(=O)[C@@H](NC(=O)C(CN)C2CCCCC2)C(C)O)CCNC(=O)[C@H]([C@@H](C)O)NC(=O)[C@H](CCN)NC(=O)[C@H](CCN)NC1=O (some centres unmarked) [Example 28] (X8-[Thr(3ξ)][Dap][Dab][Dab][dCha]L[Dab][Dab]T; lactam 3-C)	4 µg/mL

Entry CCCCC(CCN)C(=O)N[C@H](C(=O)N[C@@H](CCN)C(=O)N[C@H]1CCNC(=O)[C@H]([C@@H](C)O)NC(=O)[C@H](CCN)NC(=O)[C@H](CCN)NC(=O)[C@H](CC(C)C)NC(=O)[C@@H](CC2CCCCC2)NC(=O)[C@H](CCN)NC1=O)C(C)O (some centres unmarked) [Example 40] (X18-[Thr(3ξ)][Dab][Dab][Dab][dCha]L[Dab][Dab]T; lactam 3-C) has what MIC P. aeruginosa 068? 4 µg/mL

---

Listed next: entries and their corresponding MIC K. pneumoniae 063.
Test system: Klebsiella pneumoniae
Type: cell-based
Bridge positions count the residues as written; N and C are the ends. Square brackets hold non-standard residues; d marks the D form. Peptide text beside a SMILES is read from it. * marks the point of attachment. ξ: configuration not given here. X14 = CC(C)c1ccc(CO[C@@H](CCN)C(=O)*)cc1; dCha = N[C@H](CC1CCCCC1)C(=O)O; Thr(3ξ) = CC(O)[C@H](N)C(=O)O; Dab = NCC[C@H](N)C(=O)O; Dap = NC[C@H](N)C(=O)O; X18 = CCCCC(CCN)C(=O)*
Write the value in µg/mL as a bare number.

Example results:
molecule	MIC K. pneumoniae 063 (µg/mL)
CCCCCCCCC1CNCC1C(=O)N[C@H](C(=O)N[C@@H](CCN)C(=O)N[C@H]1CCNC(=O)[C@H]([C@@H](C)O)NC(=O)[C@H](CCN)NC(=O)[C@H](CCN)NC(=O)[C@H](CC(C)C)NC(=O)[C@@H](Cc2ccc(-c3ccccc3)cc2)NC(=O)[C@H](CCN)NC1=O)C(C)O (single isomer, unassigned; isomer 1) [Example 7]	32
CC(C)C[C@@H]1NC(=O)[C@@H](CC2CCCCC2)NC(=O)[C@H](CCN)NC(=O)[C@@H](NC(=O)[C@H](CCN)NC(=O)[C@@H](NC(=O)C(CCN)c2ccc(F)cc2)C(C)O)CCNC(=O)[C@H]([C@@H](C)O)NC(=O)[C@H](CCN)NC(=O)[C@H](CCN)NC1=O (single isomer, unassigned; isomer 2) [Example 54]	32
CC(C)C[C@@H]1NC(=O)[C@@H](CC2CCCCC2)NC(=O)[C@H](CCN)NC(=O)[C@@H](NC(=O)[C@H](CN)NC(=O)[C@@H](NC(=O)C(CCN)Cc2ccccc2)C(C)O)CCNC(=O)[C@H]([C@@H](C)O)NC(=O)[C@H](CCN)NC(=O)[C@H](CCN)NC1=O (single isomer, unassigned; isomer 2) [Example 35]	16
CCCCC(CCN)C(=O)N[C@H](C(=O)N[C@@H](CCN)C(=O)N[C@H]1CCNC(=O)[C@H]([C@@H](C)O)NC(=O)[C@H](CCN)NC(=O)[C@H](CCN)NC(=O)[C@H](CC(C)C)NC(=O)[C@@H](CC2CCCCC2)NC(=O)[C@H](CCN)NC1=O)C(C)O (stereo partly drawn) [Example 40] (X18-[Thr(3ξ)][Dab][Dab][Dab][dCha]L[Dab][Dab]T; lactam 3-C)	16
CC(C)C[C@@H]1NC(=O)[C@@H](CC2CCCCC2)NC(=O)[C@H](CCN)NC(=O)[C@@H](NC(=O)[C@H](CN)NC(=O)[C@@H](NC(=O)C(CCN)OCc2cccc(Cl)c2)[C@@H](C)O)CCNC(=O)[C@H]([C@@H](C)O)NC(=O)[C@H](CCN)NC(=O)[C@H](CCN)NC1=O (single isomer, unassigned; isomer 1) [Example 82]	32

As a next step, examine the molecule that follows.
Recorded MIC K. pneumoniae 063 for CC(C)C[C@@H]1NC(=O)[C@@H](CC2CCCCC2)NC(=O)[C@H](CCN)NC(=O)[C@@H](NC(=O)[C@H](CN)NC(=O)[C@@H](NC(=O)[C@H](CCN)OCc2ccc(C(C)C)cc2)[C@@H](C)O)CCNC(=O)[C@H]([C@@H](C)O)NC(=O)[C@H](CCN)NC(=O)[C@H](CCN)NC1=O [Example 88] (X14-T[Dap][Dab][Dab][dCha]L[Dab][Dab]T; lactam 3-C) , please? 64
